Quick reference for TGI among some compounds
System: M14 melanoma
METHOD DESCRIPTION: NCI tumour cell line growth inhibition, 48 h

C[C@]12CCC(=O)O[C@H]1CCCCO2
> 100 µM
C=C1C(=O)O[C@@H]2/C=C(\C)CC/C=C(/COC(C)=O)C[C@@H](OC(C)=O)[C@@H]12
27.1 µM

The record that follows has no TGI shown yet.
Input `O=C1CCN2C(=O)CCN12` . Output TGI: > 100 µM

====

Test system: HCT-15 colon
METHOD DESCRIPTION: NCI tumour cell line growth inhibition, 48 h
TEST READOUT: TGI (µM)
I only need the number, in µM, no unit after it.

COC(=O)[C@@H](C)CNS(=O)(=O)N(c1cc(C(F)(F)F)cc(C(F)(F)F)c1)C1CCN(Cc2ccc(F)cc2)CC1
17.9

The record that follows has no TGI shown yet.
Recorded TGI for `O=C(N/N=C/c1ccc(Cl)cc1)c1ccc(C(F)(F)F)nc1Nc1cccc(C(F)(F)F)c1` on HCT-15 colon was 12.2
